Target protein (sequence): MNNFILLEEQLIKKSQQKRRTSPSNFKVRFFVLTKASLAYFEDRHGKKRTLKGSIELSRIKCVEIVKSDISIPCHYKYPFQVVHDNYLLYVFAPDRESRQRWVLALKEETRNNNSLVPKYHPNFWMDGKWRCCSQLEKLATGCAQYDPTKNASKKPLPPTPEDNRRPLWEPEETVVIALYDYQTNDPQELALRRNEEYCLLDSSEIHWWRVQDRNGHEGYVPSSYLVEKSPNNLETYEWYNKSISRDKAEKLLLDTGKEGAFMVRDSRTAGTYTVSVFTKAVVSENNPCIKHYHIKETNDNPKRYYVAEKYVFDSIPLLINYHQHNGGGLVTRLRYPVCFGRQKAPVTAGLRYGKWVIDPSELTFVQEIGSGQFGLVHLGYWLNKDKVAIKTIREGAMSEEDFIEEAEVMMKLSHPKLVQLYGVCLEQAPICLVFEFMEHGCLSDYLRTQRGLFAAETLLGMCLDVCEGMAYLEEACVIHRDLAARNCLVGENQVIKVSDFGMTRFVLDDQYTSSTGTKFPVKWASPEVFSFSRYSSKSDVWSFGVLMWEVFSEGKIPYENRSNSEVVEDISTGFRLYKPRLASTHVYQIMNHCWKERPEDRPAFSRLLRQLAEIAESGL
measuredEndpoint: Ki (nM)

CC1(C)CCc2c(C(=O)Nc3cnn(C(c4ccccc4)C4CCOCC4)c3)n[nH]c2C1 (single isomer, unassigned) [Example 113a]: 5
CC(c1cscn1)n1cc(NC(=O)c2n[nH]c3c2CCC(C)(C)C3)cn1 (single isomer, unassigned) [Example 84b]: 13
CC1(C)CCc2c(C(=O)Nc3cnn(C(c4ccccc4)C4CCN(S(C)(=O)=O)CC4)c3)n[nH]c2C1 (single isomer, unassigned) [Example 67b]: 3
CCC1(C)CCc2c(C(=O)Nc3cnn(Cc4ccccc4)c3)n[nH]c2C1 (single isomer, unassigned) [Example 56a]: 9

(P) Cn1cc(C(c2ccccc2)n2cc(NC(=O)c3n[nH]c4c3CC3CC3C4)cn2)cn1 (single isomer, unassigned) [Example 27b]
(Q) O=C(Nc1cnn(Cc2ccccc2)c1)c1n[nH]c2c1CC1(CCOC1)C2 (single isomer, unassigned) [Example 79a]
(R) CC1(C)CCc2c(C(=O)Nc3cnn(C(c4ccccc4)C4CNCCS4(=O)=O)c3)n[nH]c2C1 (single isomer, unassigned) [Example 127b]
(S) CC1(C)CCc2c(C(=O)Nc3cnn(C(c4ccccc4)C4CN(CCF)C4)c3)n[nH]c2C1 (single isomer, unassigned) [Example 75a]
Prompt: Ordering: ascending Ki. Give your ranking as a list of the labels in the requested order.
Response: S, R, P, Q

(I) CC1(C)CCc2c(C(=O)Nc3cnn(C(c4ccccc4)C4CS(=O)(=O)CCN4)c3)n[nH]c2C1 (centres unmarked) [Example 128a]
(II) CN(C)CCC(c1ccccc1)n1cc(NC(=O)c2n[nH]c3c2CCC2(CC2)C3)cn1 (single isomer, unassigned) [Example 16a]
Prompt: Compare the recorded Ki of I and II ; state which is larger. Respond using the label that marks the chosen record.
Response: I
(I: 42 nM, II: 0.5 nM)

(a) CC1(C)CCc2c(C(=O)Nc3cnn(C(c4ccccc4)C4CN(S(C)(=O)=O)C4)c3)n[nH]c2C1 (single isomer, unassigned) [Example 45b]
(b) CC1(C)CCc2c(C(=O)Nc3cnn(C(c4cccc(C(C)(C)O)c4)C4CCS(=O)(=O)CC4)c3)n[nH]c2C1 (single isomer, unassigned) [Example 119a]
Prompt: # compare Ki for a vs b ; return the one with the smaller value Respond using the label that marks the chosen record.
Response: b
